These data points were gathered from the supplement of paper PMC10126150.

# Tested on: ATP;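 further: ATP exposure 15 min at 22 °C before imaging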
# experimentDescription: switch fluorescence ratio, 500 uM ATP over buffer (Cy3 cluster intensity, sum of 5 cycles each) (fold (ratio)); higher = stronger signal-on switching upon ATP binding; sequences stand for … in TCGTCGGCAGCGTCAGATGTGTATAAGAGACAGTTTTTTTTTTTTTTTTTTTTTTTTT…TC
# setupConditions: aptamer strand: ATP DNA aptamer (quencher-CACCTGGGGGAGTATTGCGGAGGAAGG + anchor), 100 nM annealed; ATP concentration: 500 uM
assayMetric: switch fluorescence ratio

1) GGGGAATTGA: 0.992
2) TTCGTGTACG: 1.02
3) TACAAGGGTG: 1.1
4) ATTGGTGCGT: 1.04
5) TTAAGAGGG: 0.987
6) AGTCACAGCT: 0.982
7) GGTTAAATTA: 1.01
8) GGTTGTTCCG: 0.997
9) CTTATCGGCA: 1.08
10) GGCCCTGCAG: 1.02
11) CGAGATGGGT: 0.974
12) AAGGGCTGCA: 1.03
13) GAGGTGGGGA: 0.983
14) CATCGGCTGA: 0.992
15) CCGGTAGGGA: 1.01
16) AGGGGTTGGT: 0.983
17) AGAGGAGTGT: 0.943
18) ATCTATTAGC: 0.99
19) CGTAGTGAGG: 0.994
20) GTCAAATTGT: 0.992
21) TGAGGCTGGG: 1.02
